Each entry below lists one item and its recorded NanoBRET Fold Response value.
# Target Or Test System: CCR8 (Homo sapiens, UniProt P51685)
# Construct: purchased Promega (in-house HiBiT-GPCR construct library, NanoBRET)
# Sequence (P51685 whole entry): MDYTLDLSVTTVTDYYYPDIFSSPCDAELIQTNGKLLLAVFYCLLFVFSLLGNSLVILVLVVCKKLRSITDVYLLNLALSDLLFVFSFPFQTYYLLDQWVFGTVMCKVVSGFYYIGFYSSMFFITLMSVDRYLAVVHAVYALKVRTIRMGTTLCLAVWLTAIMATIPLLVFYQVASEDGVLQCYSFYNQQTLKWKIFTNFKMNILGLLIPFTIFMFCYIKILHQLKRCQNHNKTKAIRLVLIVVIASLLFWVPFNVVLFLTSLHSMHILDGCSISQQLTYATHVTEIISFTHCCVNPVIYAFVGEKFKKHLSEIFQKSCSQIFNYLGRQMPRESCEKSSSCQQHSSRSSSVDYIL
# Protocol Notes: NanoBRET screen HiBiT-CCR8 in HEK293
# Assay type: binding
# Measurement Context: CCR8; tracer 0.1μM

# Compound, NanoBRET Fold Response
data = [
    ("Cc1nc2n(c(=O)c1CCN1CCC(c3noc4cc(F)ccc34)CC1)CCCC2OC(=O)NCCOCCOCCOCCOCCNC(=O)CCc1ccc2n1[B-](F)(F)[N+]1=C(c3ccc[nH]3)C=CC1=C2 (centres unmarked) [Risperidone-2-NB590]", 0.98),
    ("CC(C)N(CC[C@H](c1ccccc1)c1cc(CCNC(=O)CCOCCOCCOCCOCCNC(=O)CCc2ccc3n2[B-](F)(F)[N+]2=C(c4ccc[nH]4)C=CC2=C3)ccc1O)C(C)C [Tolterodine-2-NB590]", 0.82),
    ("N#CN=C(NCCCOc1cccc(CN2CCCCC2)c1)NCCNC(=O)CCOCCOCCOCCOCCNC(=O)CCc1ccc2n1[B-](F)(F)[N+]1=C(c3ccc[nH]3)C=CC1=C2 [Aminopotentidine-2-NB590]", 0.99),
    ("CCCn1c(=O)c2[nH]c(-c3ccc(OCC(=O)NCCNC(=O)CCOCCNC(=O)c4ccc(CNC(=O)CCc5ccc6n5[B-](F)(F)[N+]5=C(c7ccc[nH]7)C=CC5=C6)cc4)cc3)nc2n(CCC)c1=O [XAC-3-NB590]", 0.90),
    ("O=C(CCc1ccc2n1[B-](F)(F)[N+]1=C(c3ccc[nH]3)C=CC1=C2)NCCOCCOCCNC(=O)OCCOCCN1CCN(C2=Nc3ccccc3Sc3ccccc32)CC1 [Quetiapine-a-2-NB590]", 0.93),
    ("O=C(CCOCCOCCOCCOCCNC(=O)CCc1ccc2n1[B-](F)(F)[N+]1=C(c3ccc[nH]3)C=CC1=C2)NCCCN1CCN(C2=Nc3ccccc3Oc3ccc(Cl)cc32)CC1 [Loxapine-a-2-NB590]", 1.02),
    ("Cc1cc2c(s1)Nc1ccccc1N=C2N1CCN(CCCNC(=O)CCOCCOCCOCCOCCNC(=O)CCc2ccc3n2[B-](F)(F)[N+]2=C(c4ccc[nH]4)C=CC2=C3)CC1 [Olanzapine-a-2-NB590]", 0.96),
    ("O=C(CCc1ccc2n1[B-](F)(F)[N+]1=C(c3ccc[nH]3)C=CC1=C2)NCc1ccc(C(=O)NCCOCCC(=O)N[C@@H]2CC[C@@]3(O)[C@H]4Cc5ccc(O)c6c5[C@@]3(CCN4CC3CC3)[C@H]2O6)cc1 [Naltrexone-3-NB590]", 1.14),
    ("CC(C)N(CC[C@H](c1ccccc1)c1cc(CCNC(=O)c2ccc(CNC(=O)CCc3ccc4n3[B-](F)(F)[N+]3=C(c5ccc[nH]5)C=CC3=C4)cc2)ccc1O)C(C)C [Tolterodine-BZ-NB590]", 0.92),
    ("COc1ccccc1N1CCN(CCCCN2C(=O)c3ccc(CNC(=O)CCOCCOCCOCCOCCNC(=O)CCc4ccc5n4[B-](F)(F)[N+]4=C(c6ccc[nH]6)C=CC4=C5)cc3C2=O)CC1 [NAN-190-2-NB590]", 0.92),
    ("COc1ccccc1N1CCN(CCCCN2C(=O)c3ccc(CNC(=O)CCOCCNC(=O)c4ccc(CNC(=O)CCc5ccc6n5[B-](F)(F)[N+]5=C(c7ccc[nH]7)C=CC5=C6)cc4)cc3C2=O)CC1 [NAN-190-3-NB590]", 0.67),
]
